system: B16 melanoma cells; assay: Anti-melanogenesis assay (melanin content); format: cell-based, mouse; conditions: B16 melanoma cells; read-out: IC50 (melanin synthesis)
pIC50: −log10 of the molar value.
Measured pIC50, listed per entry.
measurement.type: pIC50

molecule="C[C@@H]1CC[C@]2(C(=O)O)CC[C@]3(C)C(=CC[C@@H]4[C@@]5(C)C[C@@H](O)[C@H](OC(=O)/C=C/c6ccc(O)cc6)C(C)(C)[C@@H]5CC[C@]43C)[C@@H]2[C@]1(C)O (relative stereo) [Compound 17, 3-O-trans-p-coumaroyl tormentic acid]" measurement_type=pIC50 result="< 4.51"
molecule=C[C@@H]1CC[C@]2(C(=O)O)CC[C@]3(C)C(=CC[C@@H]4[C@@]5(C)C[C@@H](O)C(=O)C(C)(C)[C@@H]5CC[C@]43C)[C@@H]2[C@]1(C)O measurement_type=pIC50 result="< 4.37"
molecule="C[C@@H]1CC[C@]2(C(=O)O)CC[C@]3(C)C(=CC[C@@H]4[C@@]5(C)C[C@@H](O)[C@H](OC(=O)/C=C\\c6ccc(O)cc6)C(C)(C)[C@@H]5CC[C@]43C)[C@@H]2[C@]1(C)O (relative stereo) [Compound 18, 3-O-cis-p-coumaroyl tormentic acid]" measurement_type=pIC50 result="< 4.51"

// provenance: paper PMC5454942
